- target_or_system: Beta-2 adrenergic receptor (Homo sapiens) (UniProt P07550)
- Sequence (P07550 whole entry, looked up): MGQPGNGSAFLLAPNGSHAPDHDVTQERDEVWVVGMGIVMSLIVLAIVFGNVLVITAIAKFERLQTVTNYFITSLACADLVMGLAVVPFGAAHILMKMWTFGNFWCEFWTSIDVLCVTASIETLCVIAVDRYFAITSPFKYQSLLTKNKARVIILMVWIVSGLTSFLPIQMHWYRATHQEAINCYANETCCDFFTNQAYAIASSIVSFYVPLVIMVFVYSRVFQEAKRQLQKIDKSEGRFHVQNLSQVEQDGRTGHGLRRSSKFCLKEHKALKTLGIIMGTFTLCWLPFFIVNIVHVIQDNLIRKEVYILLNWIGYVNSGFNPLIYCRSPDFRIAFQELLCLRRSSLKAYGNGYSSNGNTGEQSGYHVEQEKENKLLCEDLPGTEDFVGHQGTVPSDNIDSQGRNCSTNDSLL
- experiment_description: Adrenergic beta2 receptor (ADRB2) small molecule agonists, cell-based qHTS assay (AID 1963593);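 also: CHO cells stably overexpressing human ADRB2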
- measurement_setup: CHO-ADRB2 cells, cAMP HTRF, 30 min; series mostly up to 92.4 µM
Inconclusive results are not listed. The source made the active and inactive calls. Calls follow the shape of the full dose curve.
outcome_measure: activation

1) CCOC(=O)c1ccc(OCCN2C[C@H](O)[C@@H](O)[C@H](O)[C@H]2CO)cc1
inactive
2) NC(=O)CCCCC(N)=O
inactive
3) C1=COCCC1
inactive
4) OC[C@H]1O[C@@H](O[C@H]2[C@H](O)[C@@H](O)[C@H](O)O[C@@H]2CO)[C@H](O)[C@@H](O)[C@H]1O
inactive

Give activation for each of the items listed below.
1. Cc1cccc(C)c1[N+](=O)[O-]
2. C1CCC(SSC2CCCCC2)CC1
3. N#CCc1cccc(C(F)(F)F)c1
4. CC1CC(=O)CC(C)(C)C1 (centres undefined)
5. CCCC(C)C(O)CC (centres undefined)

inactive
inactive
inactive
inactive
inactive

Give activation for each of the items listed below.
1. O=C(c1ccccc1)C1(O)CCCCC1
2. CC1=CC[C@H](CC=O)C1(C)C
3. CCCCCCCC/C=C\CCCCCCCC(N)=O
4. C[C@H]1C[C@H](O)c2ccsc2S1(=O)=O

inactive
inactive
inactive
inactive

What does the data say about its activation? Entry: CC(=O)/C=C/C1C(C)=CCCC1(C)C (centres undefined)
inactive
